Target: T1, MAP7 microtubule-binding domain (MTBD), residues 59-170 (human, UniProt Q14244 59-170)
T1 construct: Uniformly [13C-15N] labelled in the NMR experiments; The deposited model PDB 8RC1 holds only a poly-alanine backbone of residues 63-151; also called MAP7 MTBD; MT-associated protein 7 MTBD; not shown: His-Tag, N-terminal, cleaved
T1 sequence (Q14244 59-170): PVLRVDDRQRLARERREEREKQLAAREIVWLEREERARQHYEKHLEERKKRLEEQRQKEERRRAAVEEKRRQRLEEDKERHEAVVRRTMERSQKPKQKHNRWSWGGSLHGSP
Test: fluorescence polarisation; fluorescence anisotropy; 1 µM NHS-fluorescein-labelled α-CTT, MAP7 MTBD 200 to 0 µM, 384-well plate; 40 mM NaPi pH 6.5, 150 mM NaCl, 1 mM DTT; fit with DynaFit
Conditions: both partners purified
Where no end group is shown, it is not given here.
measured_parameter: Kd (µM)
Answer format: numeric, µM implied, no suffix.

Determine from records and report Kd for SVEGEGEEEGEEY (also: NHS-fluorescein attached, position not given here, C-terminal tail of HeLa S3 α-tubulin, residues Ser 439-Tyr 451; also called fluorescein labelled α-CTT; NHS-fluorescein-labelled α-CTT; source: synthetic peptide, bought: Sigma-Aldrich; labelled with NHS-fluorescein and dialysed) [NHS-fluorescein-labelled α-tubulin C-terminal tail peptide] 91.3
